# assay_protocol: NCI Yeast Anticancer Drug Screen. Data for the mlh1 rad18 strain (AID 175)
# measurement_conditions: S. cerevisiae mlh1 rad18 strain growth inhibition; at 50.0 µM; stronger effect = higher value
# Protocol: Growth inhibition of yeast strains with defined genetic alterations is measured as a screen for potential anti-cancer activity. Selected strains with alterations in DNA damage repair or cell cycle control were exposed to compounds and growth inhibition was measured relative to vehicle treated controls. The strain used in this assay is mlh1 rad18
About 79,000 compounds went through this panel and 15% of them were active in at least one assay; those are over-represented in the sample as a whole.
Some molecules, each annotated with its measured growth inhibition.
Just the number in %, nothing appended.

// solved cases for growth inhibition follow
1) CCN(CC)Cc1ccccc1CO
0.5
2) CNC(=O)OCc1nc(SSC(C)(C)C)n(C)c1COC(=O)NC
-9.4
3) CC1(C)Oc2ccc3c(=O)cc(-c4ccccc4)oc3c2C1C(=O)O (configuration not stated)
-24
4) OC1c2cc(Br)ccc2-c2c(F)cc(Br)cc21 (configuration not stated)
-10.9
5) Nc1[nH]c(=O)nc2c1cnn2Cc1ccccc1
-3.8

Ask: Output growth inhibition of `CCCCC(O)(CC)CC`
Reply: 15.2

Ask: Output growth inhibition of `CCC(=O)c1c(O)c2ccccc2oc1=O`
Reply: 8.1

====

# assay_protocol: NCI Yeast Anticancer Drug Screen. Data for the sgs1 mgt1 strain (AID 161);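 further: 0% = growth of cultures given vehicle only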
# measurement_conditions: S. cerevisiae sgs1 mgt1 strain, at 50.0 µM, stronger effect = higher value
This is part of a sample that, as a whole, favours compounds with a hit. Of some 79,000 tested, about 15% had one in any assay.
measurement_name: growth inhibition (%)
Just the number in %, nothing appended.

1) COc1cc(NCCCCC2CCCCN2)c2ncccc2c1 (stereo unspecified)
39
2) O=C(O)c1ccc(NC(NC(=O)C(C(F)(F)F)C(F)(F)F)(C(F)(F)F)C(F)(F)F)cc1
8.9
3) CC(CNC(N)=O)NC(N)=O (stereo unspecified)
-32.4
4) Cc1c(C#N)c2n(c1C)CCN2
-9.2
5) C/C(=N/NC(=O)C1CCCO1)c1ccc(C)cc1 (stereo unspecified)
-4.75

Ask: Output growth inhibition of CC(C)(C)CC(C)(O)C(=O)O (stereo unspecified)
Reply: -15.8

Ask: Output growth inhibition of `O=c1[nH][nH]c(=O)c2nc3c(nc12)c1nc2c(=O)[nH][nH]c(=O)c2nc1c1nc2c(=O)[nH][nH]c(=O)c2nc31`
Reply: 21.1

Ask: Output growth inhibition of `CCOc1ccc(NC(=O)c2c(N/N=C/c3ccc(OC)cc3)nc(=O)[nH]c2C)cc1`
Reply: -21.6

Ask: Output growth inhibition of CC(=O)OC(C)c1cc2c(s1)C(=O)c1sccc1C2=O (stereo unspecified)
Reply: 88.8

Ask: Output growth inhibition of `COc1cc(CCCCC(=O)O)cc(Br)c1OC`
Reply: 4.9

Ask: Output growth inhibition of `O=C(O)c1ccc(/C=N\N(CCO)C2=NCCN2)cc1`
Reply: -23.8

====

# assay_protocol: NCI Yeast Anticancer Drug Screen. Data for the mlh1 rad18 strain (AID 175)
# measurement_conditions: S. cerevisiae mlh1 rad18 strain growth inhibition; at 50.0 µM; stronger effect = higher value
About 79,000 compounds went through this panel and 15% of them were active in at least one assay; those are over-represented in the sample as a whole.
measurement_name: growth inhibition (%)
Just the number in %, nothing appended.

// solved cases for growth inhibition follow
1) CCOC(=O)C(C)N1CCCCCCC1 (stereo unspecified)
-0.8
2) O=C1c2ccccc2-c2cccc(I)c21
-7.4
3) CCOc1cc2c(cc1O)/C(=N\O)C[C@@H]1[C@@H]2CC[C@]2(C)[C@@H](O)CC[C@@H]12
-9.15
4) O=[N+]([O-])C(C=C(n1nnc2ccccc21)n1nnc2ccccc21)=C(n1nnc2ccccc21)n1nnc2ccccc21
5.35
5) COC(=O)N/N=C/c1ccccc1Cl
-12.2

Ask: Output growth inhibition of `CCCCCN(C(=O)CCC)c1ccccc1`
Reply: 41.8

Ask: Output growth inhibition of CN(C)C(=O)C1(C)CC2CCC1C2 (stereo unspecified)
Reply: -0.75

Ask: Output growth inhibition of O=C(OCC1OC(c2ccccc2)OC2C(COC(=O)c3ccccc3)OC(c3ccccc3)OC12)c1ccccc1 (stereo unspecified)
Reply: 14.1

Ask: Output growth inhibition of `Cc1nc2sc(CCl)nn2c(=O)c1Cl`
Reply: 10.8

Ask: Output growth inhibition of `O=C1C(N=Nc2ccc(S(=O)(=O)Nc3ccccn3)cc2)C(=O)N(c2ccccc2)C(=S)N1c1ccccc1`
Reply: 23.6

Ask: Output growth inhibition of O=C(Nc1cccc(Cl)c1)C(=O)C(C(=O)c1ccc2ccccc2c1)C1OC(=O)c2ccccc21 (stereo unspecified)
Reply: -9.1
